Experiment: Toxicokinetics of infigratinib in juvenile rat plasma after oral gavage
Assay type: in vivo, Crl:WI(Han) rat
Settings: male, Crl:WI(Han), rat, plasma, po, 0.1 mg/kg/day, T1/2, Male rats, 0.1 mg/kg/day oral, PND 35
PROPERTY: half-life (h)
Provide only the numeric value, understood in h.

I would be grateful if you could share the reported half-life for CCN1CCN(c2ccc(Nc3cc(N(C)C(=O)Nc4c(Cl)c(OC)cc(OC)c4Cl)ncn3)cc2)CC1 [infigratinib] .
2.2

----------
Assay: Toxicokinetics of infigratinib in juvenile rat plasma after oral gavage
Format: in vivo, Crl:WI(Han) rat
Details: male, Crl:WI(Han), rat, plasma, po, 0.1 mg/kg/day, Cmax, Male rats, 0.1 mg/kg/day oral, PND 35
PROPERTY: Cmax (ng/mL)
Provide only the numeric value, understood in ng/mL.

I would be grateful if you could share the reported Cmax for CCN1CCN(c2ccc(Nc3cc(N(C)C(=O)Nc4c(Cl)c(OC)cc(OC)c4Cl)ncn3)cc2)CC1 [infigratinib] .
0.307
